Cited source for all entries: patent US8378117B2

tested target: CB1 receptor (Homo sapiens)
Construct: expressed in transfected cells
Sequence (P21554 whole entry): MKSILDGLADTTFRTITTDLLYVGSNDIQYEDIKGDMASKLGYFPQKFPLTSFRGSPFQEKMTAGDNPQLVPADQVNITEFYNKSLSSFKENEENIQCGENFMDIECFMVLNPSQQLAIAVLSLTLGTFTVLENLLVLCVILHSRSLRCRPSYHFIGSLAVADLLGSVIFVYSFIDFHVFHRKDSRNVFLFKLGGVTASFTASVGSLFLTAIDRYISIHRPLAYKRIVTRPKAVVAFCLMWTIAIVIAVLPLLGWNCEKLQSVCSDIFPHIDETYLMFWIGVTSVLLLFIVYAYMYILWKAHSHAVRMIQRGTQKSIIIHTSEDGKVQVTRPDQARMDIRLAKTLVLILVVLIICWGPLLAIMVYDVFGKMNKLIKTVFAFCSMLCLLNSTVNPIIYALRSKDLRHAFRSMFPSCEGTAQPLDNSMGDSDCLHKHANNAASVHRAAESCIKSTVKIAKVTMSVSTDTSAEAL
assay comment: cell-based
test context: CB1 Receptor Functional Agonist EC50, SK-N-MC cells, forskolin induced β-galactosidase activity
pEC50: −log10 of the molar value.
Param threshold (7) applies to pEC50; output class 1 when value >= threshold, class 0 when value < threshold.

Asked: Does the reported pEC50 for C[C@H](NS(=O)(=O)/C=C/c1n[nH]c2c1CCCCC2Cc1cccc(F)c1)c1ccccc1 (single isomer, unassigned) [Cpd 232] fall at or above the 7 mark?
Given back: class 0

Asked: Could you please find out whether O=C(N[C@@H](CO)c1ccccc1)c1n[nH]c2c1CCCC/C2=C\c1ccc(Cl)cc1 [Cpd 234] has pEC50 that meets 7 or exceeds it?
Given back: class 1

Asked: Identify whether the reported pEC50 of the following compound is 7 or greater: C[C@H](NC(=O)c1nn(-c2cc(Cl)ccc2Cl)c2c1CCCC/C2=C\c1ccc(Cl)cc1)c1ccccc1 [Cpd 198]
Given back: class 1

Asked: Say whether O=C(N[C@@H](CO)c1ccccc1)c1n[nH]c2c1CCCC/C2=C\c1cccc(Cl)c1 [Cpd 239] shows pEC50 of 7 or more.
Given back: class 1

Asked: pEC50 >= 7 for O=C(N[C@@H](CO)Cc1ccccc1)c1n[nH]c2c1CCCCC2Cc1cccc(Cl)c1 (stereo partly shown) [Cpd 167] ?
Given back: class 1

Asked: Has O=C(N[C@H](CO)c1ccccc1)c1n[nH]c2c1CCCCC2Cc1cccc(Cl)c1 (single isomer, unassigned) [Cpd 230] a recorded pEC50 greater than or equal to 7?
Given back: class 0

====

tested target: CB1 receptor (Homo sapiens)
Construct: expressed in transfected cells
assay comment: Binding assay for CB1 agonists or inverse agonists (SK-N-MC membranes, [3H]-CP-55,940)
test context: read-out: CB1 receptor binding percent inhibition, test concentration 1 μM (footnote 1)
Binary classification by inhibition at 1 µM, with 20% as an inclusive lower bound for true (1); all other cases are false (0).

Asked: Item Cn1nc(/C=C/S(=O)(=O)NN2CCCCC2)c2c1C(Cc1ccc(F)cc1)CCCC2 (centres unmarked) with inhibition at 1 µM of 20% or above?
Given back: false (0)

Asked: Does O=C(NN1CCCCC1)c1nn(-c2ccc(Cl)cc2Cl)c2c1CCCCC2Cc1cccc(Cl)c1 (centres unmarked) have a reported inhibition at 1 µM of at least 20%?
Given back: true (1)

Asked: Determine whether measured inhibition at 1 µM meets or exceeds 20% for O=C(NN1CCOCC1)c1nn(C2CCCCC2)c2c1CCCCC2Cc1cccc(F)c1 (centres unmarked)
Given back: false (0)

Asked: Would you say O=C(NC1CCC1)c1nn(C2CCCCC2)c2c1CCCCC2Cc1ccc(Cl)cc1 (centres unmarked) shows inhibition at 1 µM at minimum 20%?
Given back: false (0)

Asked: hey, is inhibition at 1 µM for this one >= 20%? CCOC(=O)[C@@H]1C2CCC(C2)[C@@H]1NC(=O)c1nn(C2CCCCC2)c2c1CCCCC2Cc1cccc(F)c1 (some centres unmarked)
Given back: false (0)

Asked: Has O=C(NC1C2CC3CC(C2)CC1C3)c1nn(C2CCCCC2)c2c1CCCCC2Cc1ccccc1Cl (centres unmarked) a recorded inhibition at 1 µM greater than or equal to 20%?
Given back: false (0)

Asked: Assess whether reported inhibition at 1 µM for CC12CCC(C1)C(C)(C)[C@H]2NC(=O)c1nn(C2CCCCC2)c2c1CCCCC2Cc1ccc(Cl)cc1 (some centres unmarked) sits at 20% or higher.
Given back: true (1)

Asked: Evaluate CC(NC(=O)c1nn(C2CCCCC2)c2c1CCCCC2Cc1cccc(Cl)c1)C12CC3CC(CC(C3)C1)C2 (centres unmarked) : inhibition at 1 µM at minimum 20%?
Given back: false (0)
